Target: GABA A receptor alpha-1/beta-2/gamma-2 (Homo sapiens)
Assay: Displacement of [3H]EBOB from human recombinant GABA alpha-1-beta-2-gamma-2 receptor expressed in HEK293 cells
Each entry below carries its recorded Ki.

| INPUT SMILES | ENDPOINT RESULT |
| --- | --- |
| CCCCc1cn(-c2ccc(Br)cc2)nn1 | > 9.15 µM |
| FC(F)(F)c1cc(Cl)c(-n2nncc2-c2ccccc2)c(Cl)c1 | > 9.15 µM |

# query: Ki of entry CCCc1cnnn1-c1c(Cl)cc(C(F)(F)F)cc1Cl
> 9.15 µM

Entry to check: CCCc1nnn(-c2c(Cl)cc(C(F)(F)F)cc2Cl)c1CC
> 9.15 µM

Next entry: CCCc1nnn(-c2c(Cl)cc(C(F)(F)F)cc2Cl)c1CCl
0.266 µM

Now the compound C#Cc1cc(Cl)c(-n2cc(CCCC)nn2)c(Cl)c1
> 9.15 µM

What would you report for CCCc1c(CC)nnn1-c1c(Cl)cc(C(F)(F)F)cc1Cl ?
> 9.15 µM

Same again, this time with FC(F)(F)c1cc(Cl)c(-n2cc(C3CCCCC3)nn2)c(Cl)c1
1.5 µM

Continue with CCCCc1cnnn1-c1c(Cl)cc(Br)cc1Cl
> 9.15 µM

Now consider CCCc1c(CCl)nnn1-c1c(Cl)cc(C(F)(F)F)cc1Cl .
> 9.15 µM

What about CCCCc1cnnn1-c1c(Cl)cccc1Cl ?
> 9.15 µM

Also check CCCCc1cn(-c2c(Cl)cccc2Cl)nn1
> 9.15 µM

Data provenance: ChEMBL document CHEMBL1149606
